Entry source: patent US10519114B2

# SYSTEM_UNDER_TEST: rat μ (C6-MOR) opioid receptor (Rattus norvegicus, UniProt P33535)
# Construct: expressed in transfected cells
# Sequence (P33535 whole entry): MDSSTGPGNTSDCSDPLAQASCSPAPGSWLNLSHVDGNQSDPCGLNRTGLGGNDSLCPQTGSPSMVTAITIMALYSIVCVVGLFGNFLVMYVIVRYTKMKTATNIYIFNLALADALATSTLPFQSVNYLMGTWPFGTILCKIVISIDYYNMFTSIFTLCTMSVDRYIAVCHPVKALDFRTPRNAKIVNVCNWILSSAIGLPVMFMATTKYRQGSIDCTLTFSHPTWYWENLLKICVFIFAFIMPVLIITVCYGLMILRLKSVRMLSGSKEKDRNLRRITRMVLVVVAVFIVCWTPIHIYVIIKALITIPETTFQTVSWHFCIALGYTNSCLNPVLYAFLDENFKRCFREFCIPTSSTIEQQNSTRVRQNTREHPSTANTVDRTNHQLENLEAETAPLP
# EXPERIMENT_NOTES: Stimulation of [35S]GTPγS binding, MOR
# Assay type: biochemical
# MEASUREMENT_CONTEXT: [35S]GTPγS binding, C6-MOR membranes; mean ± standard error
Here the recorded EC50 is given for each entry.
READOUT_KIND: EC50 (nM)

| MOLECULE | U | REPORTED |
| --- | --- | --- |
| Cc1cc(O)cc(C)c1C[C@H](N)C(=O)N[C@@H]1CCN2CCCc3cc(Cc4ccccc4)cc1c32 [Compound 1069] | nM | 1.12 |
| CC(=O)N1CC[C@@H](NC(=O)[C@@H](N)Cc2c(C)cc(O)cc2C)c2cc(Cc3ccccc3)cc(Cc3ccccc3)c21 [Compound 1042] | nM | 14.7 |
| Cc1cc(O)cc(C)c1C[C@H](N)C(=O)NC1CCNc2ccc(Oc3ccccc3)cc21 (stereo partly shown) [Compound 1017] | nM | 14.9 |
| Cc1cc(O)cc(C)c1C[C@H](N)C(=O)N[C@@H]1CCNc2cc(Cc3ccccc3)ccc21 [Compound 1023] | nM | 25.4 |
| CC(=O)N1CC[C@@H](NC(=O)[C@@H](N)Cc2c(C)cc(O)cc2C)c2cc(-c3ccccc3)ccc21 [Compound 1067] | nM | 5.64 |
| Cc1cc(O)cc(C)c1C[C@H](N)C(=O)N[C@@H]1CCNc2c(C(=O)Nc3ccccc3)cc(Cc3ccccc3)cc21 [Compound 1103] | nM | 27.3 |
| Cc1cc(O)cc(C)c1C[C@H](N)C(=O)NC1CCc2ccc(Cc3ccccc3)cc21 (stereo partly shown) [Compound 1114] | nM | 18.3 |

---

# SYSTEM_UNDER_TEST: rat μ (C6-MOR) opioid receptor (Rattus norvegicus, UniProt P33535)
# EXPERIMENT_NOTES: Stimulation of [35S]GTPγS binding, MOR
# MEASUREMENT_CONTEXT: [35S]GTPγS binding, C6-MOR membranes; mean ± standard error
pEC50: −log10 of the molar value.
READOUT_KIND: pEC50

| COMPOUND | REPORTED |
| --- | --- |
| Cc1cc(O)cc(C)c1C[C@H](N)C(=O)N[C@@H]1CCNc2c(CN3CCOCC3)cc(Cc3ccccc3)cc21 [Compound 1099] | 8.74 |
| CCCc1cc(Cc2ccccc2)cc2c1NCC[C@H]2NC(=O)[C@@H](N)Cc1c(C)cc(O)cc1C [Compound 1056] | 7.63 |
| Cc1cc(O)cc(C)c1C[C@H](N)C(=O)N[C@@H]1CCNc2ccc(Cn3n[n+]([O-])c4ccc(Cl)cc43)cc21 [Compound 1047] | 8.46 |
| Cc1cc(O)cc(C)c1C[C@H](N)C(=O)N[C@@H]1CCNc2ccc(Oc3ccc(Cl)cc3)cc21 [Compound 1025] | 8.01 |

---

pKi: −log10 of the molar value.
// endpoint pKi / system rat δ (C6-DOR) opioid receptor (Rattus norvegicus, UniProt P33533)
READOUT_KIND: pKi

| MOLECULE | READOUT_KIND | REPORTED |
| --- | --- | --- |
| Cc1cc(O)cc(C)c1C[C@H](N)C(=O)N[C@@H]1CCNc2ccc(CN3CCc4cccc(C(F)(F)F)c4C3)cc21 [Compound 1061] | pKi | 7.87 |
| CCC(=O)N1CC[C@@H](NC(=O)[C@@H](N)Cc2c(C)cc(O)cc2C)c2cc(CC3Cc4ccccc4C3)ccc21 [Compound 1033] | pKi | 9.52 |
| COC(=O)N1CC[C@@H](NC(=O)[C@@H](N)Cc2c(C)cc(O)cc2C)c2cc(CC3Cc4ccccc4C3)ccc21 [Compound 1044] | pKi | 9.59 |
| CCCCCCc1ccc2c(c1)[C@@H](NC(=O)[C@@H](N)Cc1c(C)cc(O)cc1C)CCN2 [Compound 1012] | pKi | 5.91 |
| CCCc1cc(Cc2ccccc2)cc2c1N(C(C)=O)CC[C@H]2NC(=O)[C@@H](N)Cc1c(C)cc(O)cc1C [Compound 1107] | pKi | 8.71 |
| Cc1cc(O)cc(C)c1C[C@H](N)C(=O)N[C@@H]1CCNc2c(Cc3ccccc3)cc(Cc3ccccc3)cc21 [Compound 1041] | pKi | 9.07 |
| Cc1cc(O)cc(C)c1C[C@H](N)C(=O)N[C@@H]1CCNc2ccc(Cc3ccc(F)cc3)cc21 [Compound 1009] | pKi | 8.40 |
| CC(=O)N1CC[C@@H](NC(=O)[C@@H](N)Cc2c(C)cc(O)cc2C)c2cc(Oc3cccc(Cl)c3)ccc21 [Compound 1027] | pKi | 8.30 |
